System: HMEC-1
experiment.notes: Endothelial cell proliferation assay (MTT)
Type: cell-based, human
assay.context: proliferation
property: pEC50
Scale: pEC50 equals -log10([C]), with [C] in mol/L.

Fill blank: measured pEC50 of the substance DLPKIN [QUB 698.8, Asp-Leu-Pro-Lys-Ile-Asn] is ____.
10.18
